Please go through the items and note down their pKd.
TESTED SYSTEM: T1, ADAMTS13 (human, UniProt Q76LX8 75-1427)
T1 construct: ADAMTS13, recombinant; holds TSP2-4 (detected with an anti-ADAMTS13 TSP2-4 polyclonal antibody); The introduction says the short propeptide is removed before secretion; also called recombinant ADAMTS13
T1 sequence (looked up): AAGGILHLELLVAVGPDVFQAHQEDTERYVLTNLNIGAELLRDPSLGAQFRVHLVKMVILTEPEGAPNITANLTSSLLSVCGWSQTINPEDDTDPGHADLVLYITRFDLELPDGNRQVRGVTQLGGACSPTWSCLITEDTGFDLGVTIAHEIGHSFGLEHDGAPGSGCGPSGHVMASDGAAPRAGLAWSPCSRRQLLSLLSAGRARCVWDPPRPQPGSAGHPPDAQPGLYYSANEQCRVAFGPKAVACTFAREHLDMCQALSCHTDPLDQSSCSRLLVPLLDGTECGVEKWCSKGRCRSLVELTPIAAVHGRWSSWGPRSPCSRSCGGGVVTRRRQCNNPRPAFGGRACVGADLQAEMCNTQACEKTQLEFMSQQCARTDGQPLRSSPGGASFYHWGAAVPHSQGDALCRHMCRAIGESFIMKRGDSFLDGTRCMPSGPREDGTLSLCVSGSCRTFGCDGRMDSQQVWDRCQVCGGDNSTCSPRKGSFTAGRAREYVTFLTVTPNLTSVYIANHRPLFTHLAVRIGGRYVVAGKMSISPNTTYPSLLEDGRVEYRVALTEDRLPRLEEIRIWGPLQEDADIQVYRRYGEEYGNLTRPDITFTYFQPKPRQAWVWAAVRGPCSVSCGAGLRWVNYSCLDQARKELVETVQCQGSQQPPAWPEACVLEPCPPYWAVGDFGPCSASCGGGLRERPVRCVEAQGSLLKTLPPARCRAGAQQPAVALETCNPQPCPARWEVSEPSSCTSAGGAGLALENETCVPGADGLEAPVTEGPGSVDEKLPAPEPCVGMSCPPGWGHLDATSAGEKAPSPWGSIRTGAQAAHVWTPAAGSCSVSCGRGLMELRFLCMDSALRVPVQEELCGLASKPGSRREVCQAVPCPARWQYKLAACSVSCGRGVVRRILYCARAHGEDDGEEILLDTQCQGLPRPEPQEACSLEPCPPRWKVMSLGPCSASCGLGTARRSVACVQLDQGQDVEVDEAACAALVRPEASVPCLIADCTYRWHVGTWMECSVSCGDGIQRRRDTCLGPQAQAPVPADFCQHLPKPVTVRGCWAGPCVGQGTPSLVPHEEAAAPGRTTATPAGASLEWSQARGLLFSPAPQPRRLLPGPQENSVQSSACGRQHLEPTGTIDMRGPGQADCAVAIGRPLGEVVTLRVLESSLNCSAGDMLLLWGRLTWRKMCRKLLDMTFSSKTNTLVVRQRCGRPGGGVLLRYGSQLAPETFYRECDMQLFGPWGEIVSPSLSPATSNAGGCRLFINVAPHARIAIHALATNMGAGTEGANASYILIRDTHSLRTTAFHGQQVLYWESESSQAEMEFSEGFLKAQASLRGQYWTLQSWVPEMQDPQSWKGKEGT
PROCEDURE DETAILS: ELISA; plate binding: 100 nM VWF96 or variant adsorbed on 96-well plates (50 mM sodium bicarbonate pH 9.6, overnight, 4 °C); 0-600 nM ADAMTS13 in PBS/1% BSA/80 mM EDTA, room temperature, 1.5 h (legend: 1 h); detected with biotinylated anti-ADAMTS13 TSP2-4 polyclonal antibody; one-site fit; apparent KD
DETAILS: one partner purified
The scale used: pKd is minus the common logarithm of the concentration in molar units.

Query: Find the recorded pKd belonging to VWF96-Cys (domain or fragment, human, UniProt P04275 1573-1668, looked up, Variant of the VWF96 vector; source: E. coli BL21 (DE3), purified (Ni2+ HiTrap Chelating HP, Capto Q ImpRes); not shown: 6xHis-SUMO, N-terminal, kept; HSV-6xHis, C-terminal, kept) GNRTNTGLALRYLSDHSFLVSQGDREQAPNLVYMVTGNPASDEIKRLPGDIQVVPIGVGPNANVQELERQGYPNSPQQQQDFETLPREAPDLVLQR and report it.
Reply: 6.20

Query: Find the recorded pKd belonging to VWF96-Dis (domain or fragment, human, UniProt P04275 1573-1668, looked up, Variant of the VWF96 vector; source: E. coli BL21 (DE3), purified (Ni2+ HiTrap Chelating HP, Capto Q ImpRes); not shown: 6xHis-SUMO, N-terminal, kept; HSV-6xHis, C-terminal, kept) GNRTNTGLALRYLSDHSFLVSQGDREQAPNLVYMVTGNPASAEQEELPGTIQVVPIGVGPNANVQELERIGWPNAPILIQDFETLPREAPDLVLQR and report it.
Reply: 6.21

Query: Find the recorded pKd belonging to VWF87(ΔSpacer) (domain or fragment, von Willebrand factor, A2 domain fragment: VWF96 (Gly1573-Arg1668) with residues Glu1660-Arg1668 deleted, 87 amino acids; Variant of the VWF96 vector; the C-terminal HSV-6xHis tag follows residue 1659; source: E. coli BL21 (DE3), purified (Ni2+ HiTrap Chelating HP, Capto Q ImpRes); not shown: 6xHis-SUMO, N-terminal, kept; HSV-6xHis, C-terminal, kept) GNRTNTGLALRYLSDHSFLVSQGDREQAPNLVYMVTGNPASDEIKRLPGDIQVVPIGVGPNANVQELERIGWPNAPILIQDFETLPR and report it.
Reply: 6.32

Query: Find the recorded pKd belonging to VWF96 (VWF A2 domain fragment Gly1573-Arg1668 with N-terminal 6xHis-SUMO tag and C-terminal HSV-6xHis tag) (domain or fragment, von Willebrand factor, A2 domain fragment, residues Gly1573-Arg1668 (96 amino acids); SUMO tag is a derivative of yeast Smt3 (13 kDa, Invitrogen); Vector pET25b(+); About 32 kDa with tags; also called wild-type VWF96; source: E. coli BL21 (DE3), purified (Ni2+ HiTrap Chelating HP, Capto Q ImpRes); not shown: 6xHis-SUMO, N-terminal, kept; HSV-6xHis, C-terminal, kept) GNRTNTGLALRYLSDHSFLVSQGDREQAPNLVYMVTGNPASDEIKRLPGDIQVVPIGVGPNANVQELERIGWPNAPILIQDFETLPREAPDLVLQR and report it.
Reply: 7.40
